Form field: cytotoxicity at 70.5 h (one value per entry).
Assay Info: Human HepG2 cell viability assay in 384 well format
Format: toxicity, cell-based
Set-up: dose 125 nL, time 70.5 hour; concentration not given beside the values
Condition Set: HepG2 cells, read-out: Inhibition
Form entry: value (%) — number only.

Use the examples below as a reference point.
COc1ccc(-c2cccc3c2OC(CN)C3)cc1F (configuration not stated) ... 5.9
CS(=O)(=O)CCCSCc1ccc(Br)c(F)c1 ... -1.93
CC(C)NC(=O)N1CCN(Cc2ccccn2)CC2(CC(=O)N(C)C2)C1 (configuration not stated) ... 22.3
CN1CCN(C(=O)c2ccc(Cn3cc(Br)cn3)cc2)CC1 ... -5.22
CCc1nc(CNc2ccc(F)cc2I)no1 ... 2.16

**Query** Please report cytotoxicity at 70.5 h for the following molecule: Cc1cccc(C(C(=O)NCc2csc(-c3ncccn3)n2)N(C)C)c1 (configuration not stated)
**Result** -0.325

**Query** Dear colleague, please send me the reported cytotoxicity at 70.5 h for Cc1cc(OCC(=O)N2CCCC(c3ccn[nH]3)C2)no1 (configuration not stated) when you can.
**Result** -5.93

Source of measurements: ChEMBL document CHEMBL3507680
